Please find below IC50 data on BTK (Homo sapiens, UniProt Q06187) compiled from the literature.
Sequence (Q06187 whole entry): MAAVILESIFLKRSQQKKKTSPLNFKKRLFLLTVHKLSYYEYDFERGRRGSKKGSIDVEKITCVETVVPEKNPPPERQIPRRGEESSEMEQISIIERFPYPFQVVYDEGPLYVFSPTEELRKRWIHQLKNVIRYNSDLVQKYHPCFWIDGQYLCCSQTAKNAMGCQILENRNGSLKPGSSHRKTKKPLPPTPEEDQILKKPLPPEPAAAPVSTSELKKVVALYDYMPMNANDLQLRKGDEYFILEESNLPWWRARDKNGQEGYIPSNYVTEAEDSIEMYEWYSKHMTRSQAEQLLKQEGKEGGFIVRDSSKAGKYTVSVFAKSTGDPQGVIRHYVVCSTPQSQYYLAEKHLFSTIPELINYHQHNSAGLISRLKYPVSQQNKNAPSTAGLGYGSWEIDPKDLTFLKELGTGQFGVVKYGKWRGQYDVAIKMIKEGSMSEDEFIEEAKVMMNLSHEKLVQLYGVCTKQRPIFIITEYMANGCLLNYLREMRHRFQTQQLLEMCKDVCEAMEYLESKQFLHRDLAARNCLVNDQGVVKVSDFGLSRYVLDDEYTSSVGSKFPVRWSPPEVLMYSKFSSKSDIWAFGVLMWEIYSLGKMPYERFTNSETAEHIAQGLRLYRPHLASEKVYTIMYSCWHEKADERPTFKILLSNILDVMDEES

See these solved cases before continuing.
molecule	endpointLabel	result
C=CC(=O)N1CC[C@]2(C1)C[C@H](n1c(NC(=O)c3cc(C)no3)nc3cc(CN4CCCC4)ccc31)C2	IC50	16.1 nM
C=CC(=O)N[C@@H](C)Cn1nc(-c2ccc(Oc3ccccc3)cc2)c2cncnc21	IC50	< 100 nM
CCCS(=O)(=O)Nc1ccc(F)c(C(=O)c2c[nH]c3ncc(-c4cnn(CC(C)C)c4)cc23)c1F	IC50	≤ 10000 nM
Nc1c(-c2ccccc2)c2nc3c(cnn13)C(=O)N1CCCC1COc1ncc(F)cc1CN2 (centres unmarked)	IC50	45 nM
C=CC(=O)Nc1cccc(-c2cc(-c3ccc(Oc4ccccn4)cc3F)cc3cnc(N)nc23)c1	IC50	< 100 nM

# input Report IC50, nothing else, for this molecule: `Cc1c(Cl)cccc1NCC(=O)N[C@@H]1CCCN(c2ncnc3[nH]ccc23)C1`
# output 100 to 999 nM

# input Please list IC50 recorded for the molecule `C[C@H]1CNC(=O)c2cnn3cc(N4CCOCC4)c(nc23)NCc2cc(F)cnc2O1`
# output > 10000 nM

# input Supply IC50 value. Item: `CNC(=O)Nc1cc(-c2cccc(NC(=O)c3ccc(C(C)(C)C)cc3)c2C)nn2ccnc12`
# output 10 nM
